Attribution: paper PMC10397247

target-system: T1, 4H780-bN
T1 chain: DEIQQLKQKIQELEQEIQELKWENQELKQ
assay-summary: two-hybrid library CCNG1;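 further: natural log of median RNA to DNA barcode read ratio; higher means stronger binding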
Classification field: enter True for interaction score values not below -0.6, False for values below it.

Example entries and their recorded answers appear below.
In [3]: df
Out[3]:
                                     binder  classification
0  DKNQQLKQKIQELKQENQELEWKIQELKQ [4H3926-bN]           False
1  DKNQQLEQEIQELEQKIQELEWKNQELKQ [4H3112-bN]            True
2  DEIQQLEQKNQELKQEIQELKWEIQELEQ [4H457-bN]           False

Problem: Could you tell me if the measured interaction score of DKIQQLKQEIQELKQEIQELEWENQELEQ [4H2627-bN] reaches -0.6 or more?
Solution: False

Problem: Could you tell me if the measured interaction score of DKIQQLKQKNQELKQEIQELEWEIQELKQ [4H3010-bN] reaches -0.6 or more?
Solution: True

Problem: Could you tell me if the measured interaction score of DKIQQLKQEIQELEQENQELKWEIQELKQ [4H2586-bN] reaches -0.6 or more?
Solution: False
